Hey, just so you know, these numbers are from the supplement of paper PMC4723716.

- System: Plasmodium falciparum NF54 gametocytes
- EXPERIMENT: viability index relative to DMSO control (fraction); higher = less gametocyte killing
- EXPERIMENTAL PARAMETERS: gametocyte stage: Stage IV viability index; 12.5 µM; incubation time: 72 h
We label by threshold. Values of viability index strictly beneath 0.8 are true. Values of 0.8 and up are false.

# COMPOUND, ANSWER LABEL
records = [
    ("CCCCCCOC(=O)C1=C(C)NC(=O)NC1c1ccccc1F (stereo unspecified)", "false"),
    ("Cc1ccnc(NC(c2cccc(OCc3ccccc3)c2)c2ccc3cccnc3c2O)c1 (stereo unspecified)", "true"),
    ("CC(C)(C)CC(C)(C)NCC(O)COc1ccc(Cl)cc1Cl (stereo unspecified)", "true"),
    ("CCn1c(SCC(=O)Nc2cc(C(F)(F)F)ccc2Cl)nc2ccccc2c1=O", "false"),
    ("CCCc1c(C)nc2ccccc2c1O", "true"),
]

====

Examples of compounds with documented viability index follow.
- Tested on: Plasmodium falciparum NF54 gametocytes
- EXPERIMENT: viability index relative to DMSO control (fraction); higher = less gametocyte killing
- EXPERIMENTAL PARAMETERS: gametocyte stage: Stage I viability index; 12.5 µM; incubation time: 72 h

# STRUCTURE SMILES, viability index
records = [
    ("Cc1cc(C=C2SC(=Nc3ccccc3)N(C3CCCC3)C2=O)c(C)n1-c1ccc(Cl)cc1", 1.05),
    ("CCCCOc1ccc(C(=O)Nc2cc(C)on2)cc1", 1.02),
    ("COc1cc(OC)c(N(C)C(=O)c2cc3c(s2)-c2ccccc2S(=O)(=O)C3)cc1Cl", 0.00884),
    ("O=C(NCc1ccco1)C1CCN(S(=O)(=O)c2ccc(Br)cc2)CC1", 0.938),
    ("CCN(Cc1ccccc1)C1CCN(Cc2cc(Br)ccc2O)CC1", 0.0376),
    ("COc1cccc(NC(=O)[C@H](C(C)C)n2c(=O)[nH]c3ccccc3c2=O)c1", 0.0552),
    ("O=C(Nc1ccc(N2CCN(Cc3ccccc3)CC2)cc1)c1cccs1", 0.941),
    ("CCOC(=O)c1cn(CC)c2cc(N(C)CCc3ccc(OC)c(OC)c3)c(F)cc2c1=O", 0.63),
    ("Cc1ccc(S(=O)(=O)c2c(COC(=O)c3cccc(C)c3)c(-c3ccccc3)nn2C)cc1", 0.982),
    ("CCCc1c(C)nc2ccccc2c1O", 0.634),
]

====

Measured viability index, listed per entry for reference.
- Tested on: Plasmodium falciparum NF54 gametocytes
- EXPERIMENT: viability index relative to DMSO control (fraction); higher = less gametocyte killing
- EXPERIMENTAL PARAMETERS: gametocyte stage: Stage I viability index; 12.5 µM; incubation time: 72 h

# COMPOUND, TARGET SYSTEM, viability index
measured = [
    ("CCOC(=O)c1cnc2ccc(OC)cc2c1Nc1ccc(N2CCN(C)CC2)cc1", "Plasmodium falciparum NF54 gametocytes", 0.0953),
    ("C=C(C)CCC(C)N1CCC(N2CCC(C(=O)NCCc3ccccc3)CC2)CC1 (stereo not given)", "Plasmodium falciparum NF54 gametocytes", 0.538),
    ("CCOC(=O)c1cnc2c(CC)cccc2c1O", "Plasmodium falciparum NF54 gametocytes", 1.15),
    ("Cc1cc(Nc2ccc3ccccc3c2)n2ncnc2n1", "Plasmodium falciparum NF54 gametocytes", 0.567),
    ("O=C(NC1CCN(Cc2ccccc2)CC1)c1cc(C(=O)NC2CCN(Cc3ccccc3)CC2)cc(C(=O)NC2CCN(Cc3ccccc3)CC2)c1", "Plasmodium falciparum NF54 gametocytes", 0.0629),
]

====

- Tested on: Plasmodium falciparum NF54 gametocytes
- EXPERIMENT: viability index relative to DMSO control (fraction); higher = less gametocyte killing
- EXPERIMENTAL PARAMETERS: gametocyte stage: Stage IV viability index; 12.5 µM; incubation time: 72 h

# COMPOUND, viability index
measured = [
    ("CC(C)CCNCC(O)Cn1c2ccccc2c2ccccc21 (stereo unspecified)", 0.193),
    ("Cc1cc(Nc2ccc(Cl)cc2)n2nc(C(F)(F)F)nc2n1", 0.97),
    ("O=C(Nc1ccc(-c2nc3ccccc3[nH]2)cc1)c1ccc(Cl)c(Cl)c1", 0.978),
    ("N#Cc1nc(Cc2cccc3ccccc23)oc1N1CCN(C(c2ccccc2)c2ccccc2)CC1", 0.968),
    ("COc1ccc(C(O)(CCC(C)C)C(CN2CCOCC2)c2ccc(Cl)cc2)cc1 (stereo unspecified)", 1),
    ("CCn1c(CN2CCN(Cc3ccccc3)CC2)nc2cc(NC(=O)c3cccs3)ccc21", 0.967),
    ("Cc1sc2ncnc(Sc3nc4ccccc4[nH]3)c2c1C", 0.0821),
    ("CC1CN(C(=O)c2sc3ccccc3c2Cl)CC(C)O1 (stereo unspecified)", 0.912),
    ("CCCCc1c(C)nc2c(OC)cccc2c1O", 0.954),
    ("COC(=O)c1ccc(Cl)c2c1C1C=CCC1C(c1cccc3ccccc13)N2 (stereo unspecified)", 0.962),
    ("CC(C)(C)C(=O)Nc1ccc(C(=O)Nc2cccc(-c3nc4ccccc4[nH]3)c2)cc1", 0.833),
]

====

- Test system: Plasmodium falciparum NF54 gametocytes
- EXPERIMENT: viability index relative to DMSO control (fraction); higher = less gametocyte killing
- EXPERIMENTAL PARAMETERS: gametocyte stage: Stage IV viability index; 12.5 µM; incubation time: 72 h
So basically: is viability index under 0.9? Then 1. Not under? Then 0.

# COMPOUND, TARGET SYSTEM, ANSWER LABEL
data = [
    ("O=C(NC(c1ccccc1)c1ccc2cccnc2c1O)c1ccccc1 (stereo unspecified)", "Plasmodium falciparum NF54 gametocytes", 1),
    ("COc1ccc(C2c3ccc4ccccc4c3Oc3ncn(CCCN(C)C)c(=N)c32)cc1 (stereo unspecified)", "Plasmodium falciparum NF54 gametocytes", 1),
    ("Clc1ccc2c(N3CCCC3)ccnc2c1", "Plasmodium falciparum NF54 gametocytes", 0),
    ("COc1ccc(C2NCCc3c2[nH]c2ccccc32)cc1CN1CCN(c2ccc(F)cc2)CC1 (stereo unspecified)", "Plasmodium falciparum NF54 gametocytes", 1),
    ("Cn1c(=O)c2cc(C(=O)NCCCN3CCCCCC3)sc2c2ccccc21", "Plasmodium falciparum NF54 gametocytes", 0),
    ("Cc1ccc(Nc2nc(NCCO)c3ccccc3n2)cc1C", "Plasmodium falciparum NF54 gametocytes", 1),
    ("Cc1ccc2c(C)nc(Nc3nc(C)cc(-c4ccccc4)n3)nc2c1", "Plasmodium falciparum NF54 gametocytes", 1),
    ("O=C(O)C1Cc2c([nH]c3ccccc23)C(c2ccc(Cl)cc2Cl)N1 (stereo unspecified)", "Plasmodium falciparum NF54 gametocytes", 0),
    ("O=C(NCCCN1CCC(N2CCCCC2)CC1)C1=Cc2cc(Br)ccc2OC1", "Plasmodium falciparum NF54 gametocytes", 1),
    ("O=C(Nc1ccc(Cl)cc1)N1CCN(c2ccc3nncn3n2)CC1", "Plasmodium falciparum NF54 gametocytes", 0),
    ("CC(Oc1ccc(NC(=O)c2cccs2)cc1)C(=O)c1ccc(Cl)cc1 (stereo unspecified)", "Plasmodium falciparum NF54 gametocytes", 1),
]

====

viability index for assorted molecules
- System: Plasmodium falciparum NF54 gametocytes
- EXPERIMENT: viability index relative to DMSO control (fraction); higher = less gametocyte killing
- EXPERIMENTAL PARAMETERS: gametocyte stage: Stage IV viability index; 12.5 µM; incubation time: 72 h
EXPERIMENTAL READOUT: viability index

# MOLECULE, TARGET SYSTEM, EXPERIMENTAL READOUT, RESULT
rows = [
    ("CSC1=NC(=Nc2c(C)cccc2C)C2(CCC(C(C)(C)C)CC2)N1c1ccc(Cl)cc1 (stereo not drawn)", "Plasmodium falciparum NF54 gametocytes", "viability index", 0.994),
    ("FC(F)(F)c1ccc(Nc2nnnc3ccccc23)cc1", "Plasmodium falciparum NF54 gametocytes", "viability index", 0.72),
    ("CCCCCCc1cc2cc(-c3csc(C=Cc4ccccc4)n3)c(=O)oc2cc1O", "Plasmodium falciparum NF54 gametocytes", "viability index", 0.797),
    ("Cc1cc(C)c2c(c1)OCN(Cc1ccccc1Cl)C2", "Plasmodium falciparum NF54 gametocytes", "viability index", 0.663),
    ("COc1ccc(Nc2nc(NN=Cc3ccc(O)cc3)nc(Nc3ccc([N+](=O)[O-])cc3)n2)cc1", "Plasmodium falciparum NF54 gametocytes", "viability index", 0.142),
    ("COc1cccc(C=Cc2nc(=O)c3ccccc3o2)c1OC", "Plasmodium falciparum NF54 gametocytes", "viability index", 0.948),
    ("CCN(CC)CCNc1ncnc2c1[nH]c1ccc(Br)cc12", "Plasmodium falciparum NF54 gametocytes", "viability index", 0.641),
    ("COc1cccc(C(=O)Nc2ccc(-c3nc4ccccc4[nH]3)cc2)c1", "Plasmodium falciparum NF54 gametocytes", "viability index", 1.03),
    ("COc1ccc(CNC(=O)c2cc3c(=O)n4ccccc4nc3n(CCc3ccccc3)c2=N)cc1", "Plasmodium falciparum NF54 gametocytes", "viability index", 0.946),
    ("O=C(CSc1ccc2nnc(-c3cccc(F)c3)n2n1)Nc1ccc2c(c1)OCO2", "Plasmodium falciparum NF54 gametocytes", "viability index", 1.16),
    ("CCCCC(O)(c1ccc(Cl)cc1)C(CN1CCOCC1)c1ccc(Cl)cc1 (stereo not drawn)", "Plasmodium falciparum NF54 gametocytes", "viability index", 0.763),
    ("COCCNC(=O)c1ccc(OC2CCN(Cc3ccc(F)c(F)c3)CC2)c(Cl)c1", "Plasmodium falciparum NF54 gametocytes", "viability index", 0.979),
    ("CCCn1c(=N)c(C(=O)NC2CCCCC2)cc2c(=O)n3cccc(C)c3nc21", "Plasmodium falciparum NF54 gametocytes", "viability index", 0.981),
    ("Cc1ccc(-c2cc3c(SCC(=O)Nc4cc(C(F)(F)F)ccc4Cl)nccn3n2)cc1", "Plasmodium falciparum NF54 gametocytes", "viability index", 0.921),
    ("Cc1cc(Nc2ccc(OCc3ccccc3)cc2)nc2cc(O)ccc12", "Plasmodium falciparum NF54 gametocytes", "viability index", 0.487),
    ("Cc1ccccc1OCCSc1nc2ccc(NC(=O)c3ccccc3)cc2s1", "Plasmodium falciparum NF54 gametocytes", "viability index", 0.835),
    ("COCCN(C(=O)Cc1cccs1)C(C(=O)NCc1ccc(OC)cc1)c1ccc(C(C)C)cc1 (stereo not drawn)", "Plasmodium falciparum NF54 gametocytes", "viability index", 1.11),
    ("OC1CCCCC1C1(NC(=S)Nc2ccccc2)CCCCC1 (stereo not drawn)", "Plasmodium falciparum NF54 gametocytes", "viability index", 0.108),
    ("COc1ccc2c(=O)cc(C(Cl)(Cl)Cl)oc2c1", "Plasmodium falciparum NF54 gametocytes", "viability index", 0.623),
    ("COc1ccc(C2c3ccc4ccccc4c3Oc3ncn(CCCn4ccnc4)c(=N)c32)cc1OC (stereo not drawn)", "Plasmodium falciparum NF54 gametocytes", "viability index", 0.547),
    ("Cc1ccc2nc(C)cc(Nc3cccc(C(F)(F)F)c3)c2c1", "Plasmodium falciparum NF54 gametocytes", "viability index", 0.829),
    ("Cc1cc(Nc2cccc(F)c2)nc(NCc2ccccc2)n1", "Plasmodium falciparum NF54 gametocytes", "viability index", 1.01),
    ("CCC(c1ccccc1)c1nn2c(-c3cccs3)nnc2s1 (stereo not drawn)", "Plasmodium falciparum NF54 gametocytes", "viability index", 0.875),
    ("CN(C)c1ccc(C=Cc2nc(=O)c3ccccc3o2)cc1", "Plasmodium falciparum NF54 gametocytes", "viability index", 0.921),
    ("COc1cccc(C(=O)NC(c2ccc(C)cc2)c2cc(Cl)c3cccnc3c2O)c1 (stereo not drawn)", "Plasmodium falciparum NF54 gametocytes", "viability index", 0.247),
    ("COc1ccc(-c2nonc2NC(=O)c2cccc(Cl)c2)cc1OC", "Plasmodium falciparum NF54 gametocytes", "viability index", 0.684),
    ("Cc1cc(NC(=O)c2cccc(C(F)(F)F)c2)n(-c2nc(-c3ccc4c(c3)OCO4)cs2)n1", "Plasmodium falciparum NF54 gametocytes", "viability index", 0.951),
    ("CC(=O)NCCc1nc2ccccc2n1Cc1ccc(C(C)C)cc1", "Plasmodium falciparum NF54 gametocytes", "viability index", 0.891),
    ("Oc1ccccc1CN1CCN(C(c2ccccc2)c2ccccc2)CC1", "Plasmodium falciparum NF54 gametocytes", "viability index", 0.535),
    ("Cc1c(C)n(Cc2ccc(F)cc2)c2ccc(C(=O)NCc3ccco3)cc12", "Plasmodium falciparum NF54 gametocytes", "viability index", 0.827),
    ("O=c1nc(C=Cc2ccc(Cl)cc2)oc2ccccc12", "Plasmodium falciparum NF54 gametocytes", "viability index", 0.866),
    ("COc1ccc(-c2cn3c(C(=O)Nc4ccccc4Cl)c(-c4ccccc4)c4c3n2CCCC4)cc1", "Plasmodium falciparum NF54 gametocytes", "viability index", 0.794),
    ("CC1CCCCN1CCCNC(=O)c1ccc2c(c1)sc1nc(-c3ccc(F)cc3)cn12 (stereo not drawn)", "Plasmodium falciparum NF54 gametocytes", "viability index", 1.2),
    ("Brc1ccc(Nc2nc3ccccc3nc2Nc2ccc(Br)cc2)cc1", "Plasmodium falciparum NF54 gametocytes", "viability index", 0.0222),
    ("COc1ccc(-c2nc(NC(=O)CS(=O)(=O)c3ccc(F)cc3)sc2C)cc1", "Plasmodium falciparum NF54 gametocytes", "viability index", 0.888),
    ("CCOC(=O)C1=C(C)N=c2sc(=Cc3ccccc3O)c(=O)n2C1c1ccc(OC)c2ccccc12 (stereo not drawn)", "Plasmodium falciparum NF54 gametocytes", "viability index", 0.468),
    ("Cc1c(C)n(CC(O)CNC2CCCCC2C)c2ccccc12 (stereo not drawn)", "Plasmodium falciparum NF54 gametocytes", "viability index", 0.766),
    ("CCCCc1ccc(NS(=O)(=O)c2cc3c4c(c2)CCN4C(=O)CC3)cc1", "Plasmodium falciparum NF54 gametocytes", "viability index", 1.12),
    ("CCc1c(C)c(=N)c2ccccc2n1C", "Plasmodium falciparum NF54 gametocytes", "viability index", 0.988),
    ("c1ccc(C2=Nc3ccccc3N=C(c3ccccc3)c3ccccc32)cc1", "Plasmodium falciparum NF54 gametocytes", "viability index", 0.123),
    ("O=C(NC1CCN(Cc2ccccc2)CC1)c1cc(-c2ccncc2)nc2ccc(Cl)cc12", "Plasmodium falciparum NF54 gametocytes", "viability index", 0.994),
    ("CCOc1cccc2sc(N(Cc3cccnc3)C(=O)C3CCCCC3)nc12", "Plasmodium falciparum NF54 gametocytes", "viability index", 0.951),
    ("O=C(Cc1ccccc1)NC(c1ccc(Cl)cc1)c1c(O)ccc2ccccc12 (stereo not drawn)", "Plasmodium falciparum NF54 gametocytes", "viability index", 0.604),
]
